- Measurement target: Sodium-dependent serotonin transporter (Homo sapiens, UniProt P31645)
- Sequence (P31645 whole entry): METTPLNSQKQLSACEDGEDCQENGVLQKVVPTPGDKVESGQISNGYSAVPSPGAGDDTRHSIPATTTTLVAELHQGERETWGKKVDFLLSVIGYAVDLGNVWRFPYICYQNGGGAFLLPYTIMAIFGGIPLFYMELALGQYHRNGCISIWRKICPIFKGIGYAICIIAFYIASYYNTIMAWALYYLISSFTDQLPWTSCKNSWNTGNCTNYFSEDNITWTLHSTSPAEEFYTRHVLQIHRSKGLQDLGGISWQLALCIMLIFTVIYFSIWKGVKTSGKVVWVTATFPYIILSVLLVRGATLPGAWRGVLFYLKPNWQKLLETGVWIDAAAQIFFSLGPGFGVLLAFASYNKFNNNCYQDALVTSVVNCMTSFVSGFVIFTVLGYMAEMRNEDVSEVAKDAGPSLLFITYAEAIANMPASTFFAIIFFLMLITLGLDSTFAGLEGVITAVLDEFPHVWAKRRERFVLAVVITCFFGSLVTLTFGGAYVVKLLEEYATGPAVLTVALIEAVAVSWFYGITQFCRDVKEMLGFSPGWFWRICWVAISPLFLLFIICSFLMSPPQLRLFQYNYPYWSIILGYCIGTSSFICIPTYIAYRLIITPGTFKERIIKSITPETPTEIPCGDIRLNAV
- Assay remarks: Inhibition of [3H]-5-hydroxytryptamine reuptake in human SERT expressed in HEK293 cells by microbeta liquid scintillation counting method
Lab note - cut at 4 µM for IC50: yes (1) if strictly below, no (0) if not.

| Chemical structure | Classification |
| --- | --- |
| O=C(NCCCN1CCC(Cc2ccccc2)CC1)C(c1ccc(Cl)cc1)c1ccc(Cl)cc1 | no (0) |
| c1ccc(CC2CCN(CCCn3nnnc3C(c3ccccc3)c3ccccc3)CC2)cc1 | no (0) |
| Fc1ccc(C(OCCN2CCN(c3ccccc3Cl)CC2)c2ccc(F)cc2)cc1 | no (0) |
| c1ccc(CN2CCN(CCCCn3nnnc3C(c3ccccc3)c3ccccc3)CC2)cc1 | yes (1) |
| c1ccc(CN2CCN(CCn3nnnc3C(c3ccccc3)c3ccccc3)CC2)cc1 | no (0) |
| Fc1ccc(C(OCCN2CCN(c3cccc(Cl)c3)CC2)c2ccc(F)cc2)cc1 | no (0) |
| C(=C\c1ccccc1)/CN1CCN(CCCn2nnnc2C(c2ccccc2)c2ccccc2)CC1 | no (0) |
| c1ccc(CN2CCN(CCCn3nnnc3C(c3ccccc3)c3ccccc3)CC2)cc1 | no (0) |
| c1ccc(CCN2CCN(CCCn3nnnc3C(c3ccccc3)c3ccccc3)CC2)cc1 | yes (1) |
| c1ccc(CCCN2CCN(CCn3nnnc3C(c3ccccc3)c3ccccc3)CC2)cc1 | yes (1) |

====

log10 of IC50 values by entry
- Measurement target: Sodium-dependent noradrenaline transporter (Homo sapiens, UniProt P23975)
- Sequence (P23975 whole entry): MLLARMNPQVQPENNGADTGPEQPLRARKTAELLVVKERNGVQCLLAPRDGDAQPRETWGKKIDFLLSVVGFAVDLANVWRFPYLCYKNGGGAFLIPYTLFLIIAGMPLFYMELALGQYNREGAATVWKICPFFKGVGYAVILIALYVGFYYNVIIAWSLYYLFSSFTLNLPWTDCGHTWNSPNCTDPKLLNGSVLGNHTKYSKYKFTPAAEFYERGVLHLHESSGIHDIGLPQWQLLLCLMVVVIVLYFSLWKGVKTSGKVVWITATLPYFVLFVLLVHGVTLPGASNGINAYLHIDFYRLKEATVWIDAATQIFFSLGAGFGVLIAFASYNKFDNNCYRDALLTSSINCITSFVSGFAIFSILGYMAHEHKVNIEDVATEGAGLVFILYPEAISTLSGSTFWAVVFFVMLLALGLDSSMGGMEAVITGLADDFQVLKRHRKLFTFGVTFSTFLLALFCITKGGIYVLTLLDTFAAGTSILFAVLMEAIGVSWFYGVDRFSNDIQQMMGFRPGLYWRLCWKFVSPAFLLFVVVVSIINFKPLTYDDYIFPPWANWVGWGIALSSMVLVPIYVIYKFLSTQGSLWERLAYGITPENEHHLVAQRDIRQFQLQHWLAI
- Assay remarks: Inhibition of […] reuptake in human NET expressed in HEK293 cells by microbeta liquid scintillation counting method
Readout name: log10 of IC50 (log10 of the value in µM)

| Chemical structure | log10 of IC50 |
| --- | --- |
| Fc1ccc(C(OCCN2CCN(c3ccccc3)CC2)c2ccc(F)cc2)cc1 | 0.73 |
| Fc1ccc(C(OCCN2CCC(Cc3ccccc3)CC2)c2ccc(F)cc2)cc1 | 0.77 |
| c1ccc(CC2CCN(CCCn3nnnc3C(c3ccccc3)c3ccccc3)CC2)cc1 | -0.28 |
| Fc1ccc(C(OCCN2CCN(c3ccc(Cl)cc3Cl)CC2)c2ccc(F)cc2)cc1 | 0.57 |
| c1ccc(CC2CCN(CCn3nnnc3C(c3ccccc3)c3ccccc3)CC2)cc1 | 0.23 |
| c1ccc(CCN2CCN(CCn3nnnc3C(c3ccccc3)c3ccccc3)CC2)cc1 | 0.45 |
| Fc1ccc(C(OCCN2CCN(c3cccc(Cl)c3)CC2)c2ccc(F)cc2)cc1 | 0.12 |
| Fc1ccc(C(OCCN2CCN(c3ccc(Cl)cc3)CC2)c2ccc(F)cc2)cc1 | 0.20 |

====

- Measurement target: Sodium-dependent dopamine transporter (Homo sapiens)
- Sequence (Q01959 whole entry): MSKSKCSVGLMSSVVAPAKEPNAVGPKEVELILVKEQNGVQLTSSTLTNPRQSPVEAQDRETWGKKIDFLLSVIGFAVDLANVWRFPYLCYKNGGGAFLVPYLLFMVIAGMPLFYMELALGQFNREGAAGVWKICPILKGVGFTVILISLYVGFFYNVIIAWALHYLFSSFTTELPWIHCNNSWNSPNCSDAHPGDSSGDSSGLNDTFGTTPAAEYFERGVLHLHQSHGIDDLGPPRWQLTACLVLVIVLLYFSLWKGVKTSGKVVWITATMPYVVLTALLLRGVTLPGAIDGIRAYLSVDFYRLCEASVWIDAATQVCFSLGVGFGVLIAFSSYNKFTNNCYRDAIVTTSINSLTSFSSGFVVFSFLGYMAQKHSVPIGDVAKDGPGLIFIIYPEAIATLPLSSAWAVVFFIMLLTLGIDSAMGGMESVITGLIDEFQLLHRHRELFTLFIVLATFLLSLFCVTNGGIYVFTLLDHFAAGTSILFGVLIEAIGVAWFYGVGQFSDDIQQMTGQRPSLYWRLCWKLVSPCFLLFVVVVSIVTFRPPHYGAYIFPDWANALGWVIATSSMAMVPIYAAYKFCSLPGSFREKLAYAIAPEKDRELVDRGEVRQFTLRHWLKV
- Assay remarks: Inhibition of […] reuptake in human DAT expressed in HEK293 cells by microbeta liquid scintillation counting method

| Chemical structure | IC50 |
| --- | --- |
| c1ccc(CN2CCN(CCCn3nnnc3C(c3ccccc3)c3ccccc3)CC2)cc1 | 292 nM |
| c1ccc(CCN2CCN(CCCCn3nnnc3C(c3ccccc3)c3ccccc3)CC2)cc1 | 608 nM |
| c1ccc(CC2CCN(CCCCn3nnnc3C(c3ccccc3)c3ccccc3)CC2)cc1 | 590 nM |
| C(=C\c1ccccc1)/CN1CCN(CCCCn2nnnc2C(c2ccccc2)c2ccccc2)CC1 | 3640 nM |
| Fc1ccc(C(OCCN2CCN(c3ccc(Cl)cc3)CC2)c2ccc(F)cc2)cc1 | 1390 nM |
| c1ccc(CCCN2CCN(CCn3nnnc3C(c3ccccc3)c3ccccc3)CC2)cc1 | 692 nM |
| C(=C\c1ccccc1)/CN1CCN(CCn2nnnc2C(c2ccccc2)c2ccccc2)CC1 | 940 nM |
| Fc1ccc(C(OCCN2CCN(c3ccccn3)CC2)c2ccc(F)cc2)cc1 | 990 nM |
